Tested on: NCI-H23 lung
Experiment: NCI tumour cell line growth inhibition, 48 h
Measured Attribute: TGI (µM)

[[record]]
compound = "COc1cc2c(cc1O)CC[C@@H]1C2CC[C@@]2(C)C1CC[C@@H]2O (some centres undefined)"
experimental_target = "NCI-H23 lung"
measured_attribute = "TGI"
result_modifier = "="
measurement = 51.7

[[record]]
compound = "O=C(O)CCCc1ccc2c(c1)CC1(C2)Cc2ccc(CCCC(=O)O)cc2C1"
experimental_target = "NCI-H23 lung"
measured_attribute = "TGI"
result_modifier = ">"
measurement = 100

[[record]]
compound = "Cc1nn(-c2ccccn2)c2c1C(SC#N)=C(C=O)CC2"
experimental_target = "NCI-H23 lung"
measured_attribute = "TGI"
result_modifier = "="
measurement = 32.2

[[record]]
compound = "COc1ccccc1N1C(=O)/C(=C\\c2cccc(Oc3ccccc3)c2)S(=O)(=O)C1c1ccccc1 (centres undefined)"
experimental_target = "NCI-H23 lung"
measured_attribute = "TGI"
result_modifier = ">"
measurement = 100


* * *

Reported TGI values follow for various molecules
Test system: MOLT-4 leukemia
Assay: NCI tumour cell line growth inhibition, 48 h
Measured Attribute: TGI

[[record]]
molecule = "Cc1cccc2c1C(=O)[C@@](C)([C@]1(C)Nc3cccc(C)c3C1=O)N2"
measurement = "> 100 µM"

[[record]]
molecule = "Cc1ccc(S(=O)(=O)c2ccsc2N)cc1"
measurement = "> 100 µM"

[[record]]
molecule = "COc1cc(CNC(=O)CCSc2nc3ccccc3c(=O)n2Cc2cc(OC)c(OC)c(OC)c2)cc(OC)c1OC"
measurement = "> 100 µM"

[[record]]
molecule = "O=C(NCCCCNCCCNC(=O)OCc1ccccc1)OCc1ccccc1"
measurement = "73.6 µM"

[[record]]
molecule = "Cc1ccc(C)c2c1CCc1cc3ccccc3nc1-2"
measurement = "> 100 µM"

[[record]]
molecule = "Cc1cccc(C(O)c2cccnc2)c1O (centres undefined)"
measurement = "> 100 µM"

[[record]]
molecule = "O=c1[nH]cnc2nc(-c3ccc(N(CCCl)CCCl)cc3)[nH]c12"
measurement = "> 100 µM"

[[record]]
molecule = "c1ccc(-c2[nH]c(-c3ccccc3)c(-c3cnccn3)c2-c2cnccn2)cc1"
measurement = "> 100 µM"

[[record]]
molecule = "Cc1cc(Cl)ccc1NC(=O)NC(C)(C)COC(=O)Nc1cccc(Cl)c1"
measurement = "79 µM"

[[record]]
molecule = "O=C1OC2C=CC1C1(CCOC1=O)C2 (centres undefined)"
measurement = "> 100 µM"

[[record]]
molecule = "CCCCN(CCCC)C(=O)C(=O)CC(=O)/C=C/c1ccccc1"
measurement = "> 100 µM"

[[record]]
molecule = "COc1ccc(C(C)NNC(=O)c2ccncc2)cc1F (centres undefined)"
measurement = "> 100 µM"

[[record]]
molecule = "CC1(C)Oc2ccc3c(=O)c4ccccc4oc3c2C1C(=O)O (centres undefined)"
measurement = "> 100 µM"

[[record]]
molecule = "O=c1/c(=C/c2ccc(-c3ccc(Cl)cc3Cl)o2)sc2n1[C@@H](c1ccc3c(c1)OCO3)C=C(c1cc(F)c(Cl)cc1Cl)N=2"
measurement = "> 100 µM"

[[record]]
molecule = "C=Cc1cnc([N+](=O)[O-])n1C"
measurement = "> 100 µM"

[[record]]
molecule = "C=C1C[C@@H]2[C@H](CC[C@]3(C)C(=O)CC[C@@H]23)[C@@]2(C)C=CC(=O)C=C12"
measurement = "> 92.6 µM"

[[record]]
molecule = "C=C1C(=O)O[C@H]2[C@H]([C@H](C)CCCC(C)=O)O[C@H]([C@@]3(C)CCC(=O)O3)C[C@@H]12"
measurement = "> 100 µM"

[[record]]
molecule = "C=C1CC(OC)(C(O)C(=O)N[C@H]2OCO[C@H]3C2O[C@H](C[C@H](O)COC)C(C)(C)C3OC)O[C@H](C)[C@@H]1C (some centres undefined)"
measurement = "> 0.00772 µM"

[[record]]
molecule = "C[C@H]1CCC/C=C/[C@@H]2C[C@H](O)C[C@H]2[C@H](O)[C@@H](SC2OC(CO)C(O)C(O)C2O)CC(=O)O1 (some centres undefined)"
measurement = "> 100 µM"

[[record]]
molecule = "O=C(Nc1ccccc1C(=O)O)C(=O)C(C(=O)c1ccccc1-c1ccccc1)C1OC(=O)c2ccccc21 (centres undefined)"
measurement = "> 100 µM"

[[record]]
molecule = "CCOC(=O)/C(C#N)=C(N)/C(=N\\Nc1cccc(C(F)(F)F)c1)C(=O)OCC"
measurement = "> 100 µM"

[[record]]
molecule = "OC(O)(C(F)(F)F)C(F)(F)F"
measurement = "> 100 µM"

[[record]]
molecule = "O=C1C(=Cc2ccccc2[N+](=O)[O-])N=C(c2ccccc2)N1n1c(-c2ccccc2)nc2ccccc2c1=O"
measurement = "70.4 µM"

[[record]]
molecule = "Cc1nnc(CC#N)n1NC(=O)CC#N"
measurement = "> 100 µM"

[[record]]
molecule = "CC1(C)N=C(N)N=C(N)N1c1ccc(OCCCOc2ccccc2)c(Cl)c1"
measurement = "16.8 µM"

[[record]]
molecule = "C/C=C/C(=O)[O-].N.N.N.N.N.[Co+3].[O-][Cl+3]([O-])([O-])[O-]"
measurement = "> 100 µM"

[[record]]
molecule = "CCC(=O)OC1=CN2C(=NC(c3ccc(N)cc3)=CC2c2cc(OC)c(OC)c(OC)c2)S1 (centres undefined)"
measurement = "64.7 µM"

[[record]]
molecule = "C[C@@H]1OCC(O)C([C@H]2OC(c3ccccc3)=N[C@H]2CO)O1 (some centres undefined)"
measurement = "> 100 µM"

[[record]]
molecule = "CCC1CCC2c3c([nH]c4ccccc34)C3C(=O)N(c4ccc(OC)cc4)C(=O)C3C2C1 (centres undefined)"
measurement = "32.5 µM"

[[record]]
molecule = "O=C(Nc1cccc([N+](=O)[O-])c1)c1cc2ccccc2cc1O"
measurement = "6.24 µM"

[[record]]
molecule = "COC1=CC(=O)c2c(cc(COP(=O)(N(C)CCBr)N(C)CCBr)n2C)C1=O"
measurement = "> 100 µM"

[[record]]
molecule = "FC(F)(F)c1cc(NC2=NCCN=C(Nc3cc(C(F)(F)F)cc(C(F)(F)F)c3)SS2)cc(C(F)(F)F)c1"
measurement = "28 µM"

[[record]]
molecule = "COc1ccc(C2NC(=O)Nc3c2c(=O)oc2c3ccc3ccccc32)cc1 (centres undefined)"
measurement = "> 100 µM"

[[record]]
molecule = "COc1cc(-c2[o+]c3cc(O)cc(OC4OC(CO)C(O)C(O)C4O)c3cc2OC2OC(CO)C(O)C(O)C2O)cc(OC)c1O (centres undefined)"
measurement = "> 100 µM"

[[record]]
molecule = "NC1CCCCC1N.O=S(=O)([O-])CCCN1CCN(CCO)CC1.O=S(=O)([O-])CCCN1CCN(CCO)CC1.[Pt+4]"
measurement = "20.6 µM"

[[record]]
molecule = "COc1cc(/C=C/c2cc(/C=C/c3ccc(O)c(OC)c3)[nH]c(=O)n2)ccc1O"
measurement = "11.7 µM"

[[record]]
molecule = "C[C@H]1CC2=CC(=O)CC[C@]2(C)[C@H]2CC[C@@]3(C)[C@@H](CC[C@]3(C)O)[C@H]12"
measurement = "50.6 µM"

[[record]]
molecule = "O=C(NCc1ccccc1)c1c(O)c2ccccc2[nH]c1=O"
measurement = "> 100 µM"

[[record]]
molecule = "CC(C)(O)CCC(O)C(C)(O)C1CCC2(O)C3=CC(=O)C4(O)CC(O)C(O)CC4(C)C3CCC12C (centres undefined) (tested in a mixture with another compound)"
measurement = "> 100 µM"


* * *

Tested on: HOP-92 NSCLC
Test: NCI tumour cell line growth inhibition, 48 h
Measured Attribute: TGI

[[record]]
compound = "COc1cc(CC2CC(c3ccc4c(c3)OCO4)OC2=O)cc(OC)c1OC (centres undefined)"
measured_attribute = "TGI"
measurement = "> 100 µM"

[[record]]
compound = "COC(=O)c1nn(C(=N)c2ccc(Cl)cc2)c2c1CCCCC2"
measured_attribute = "TGI"
measurement = "> 100 µM"

[[record]]
compound = "O=C(Nc1ccc(-c2ccnc(Nc3ccc(N4CCOCC4)cc3)n2)cc1)C1CCCN1 (centres undefined)"
measured_attribute = "TGI"
measurement = "24.4 µM"

[[record]]
compound = "CCCCCCCCCCCCCCCCNc1ccn(C2CC(OP(=O)(O)OCC3OC(n4cc(CC)c(=O)[nH]c4=O)CC3O)C(CO)O2)c(=O)n1 (centres undefined)"
measured_attribute = "TGI"
measurement = "> 100 µM"


* * *

Reported TGI values follow for various molecules
System: XF 498 CNS
Test: NCI tumour cell line growth inhibition, 48 h
Measured Attribute: TGI

[[record]]
molecule = "C[C@@H](c1ccccc1)N(CC#N)C1CCC[C@H]1O (stereo not given in full)"
measured_attribute = "TGI"
measurement = "> 100 µM"

[[record]]
molecule = "c1ccc(-c2[nH]c(-c3ccccc3)c(-c3cnccn3)c2-c2cnccn2)cc1"
measured_attribute = "TGI"
measurement = "> 100 µM"

[[record]]
molecule = "COC(=O)C1=C(c2cc(OC)c(OC)c(OC)c2)O[C@H](c2ccc3c(c2)OCO3)[C@H]1COC(C)=O"
measured_attribute = "TGI"
measurement = "> 100 µM"

[[record]]
molecule = "COc1cc(C(=O)C/C(CCC(=O)Nc2ccc(Cl)cc2Cl)=N/Nc2nnc(C)n2N)ccc1O"
measured_attribute = "TGI"
measurement = "> 100 µM"

[[record]]
molecule = "Cc1ccc(SCC(O)=C2C(=O)CCCC2=O)cc1"
measured_attribute = "TGI"
measurement = "> 100 µM"

[[record]]
molecule = "CC1OC=CC(=O)C1O (stereo not given)"
measured_attribute = "TGI"
measurement = "> 100 µM"

[[record]]
molecule = "O=C1C2=C(c3ccccc31)C(c1ccc(F)cc1)N1C(=O)CCSC1=N2 (stereo not given)"
measured_attribute = "TGI"
measurement = "> 100 µM"

[[record]]
molecule = "C=C1CC(OC)(C(O)C(=O)N[C@H]2OCO[C@H]3C2O[C@H](C[C@H](O)COC)C(C)(C)C3OC)O[C@H](C)[C@@H]1C (stereo not given in full)"
measured_attribute = "TGI"
measurement = "> 0.00772 µM"

[[record]]
molecule = "COC(=O)/C(=N/O)C(C(=O)OC)C(=O)C(=O)Nc1c(Cl)cc(C)cc1S(=O)(=O)O (stereo not given)"
measured_attribute = "TGI"
measurement = "> 100 µM"

[[record]]
molecule = "O=C(Nc1ccccc1C(=O)O)C(=O)C(C(=O)c1ccccc1-c1ccccc1)C1OC(=O)c2ccccc21 (stereo not given)"
measured_attribute = "TGI"
measurement = "22 µM"

